This collection of values is drawn from patent US3988364A.

tested on: dogs; assay: Antitussive activity (50%-antitussive effective dose AtD50; efficiency ratio relative to codeine phosphate); format: in vivo; conditions: intravenous injection; efficiency ratio relative to codeine phosphate
Structures can show the parent of a compound that is named as a salt.
Heads up, the class ranges for Antitussive Ratio are band 1: < 0.6; band 2: ≥ 0.6 and < 1; band 3: ≥ 1

compound | label-class
COc1ccc2c(c1)[C@]13CCCC[C@@H]1[C@H](C2)N(C)CC3 [Compound 15, dextrometrofan hydrobromide, reference compound] | band 1
Cl.c1ccc(N(CCN2CCCCC2)Cc2ccccn2)cc1 [Compound 11, picoperidamine hydrochloride, reference compound] | band 2
Cc1cccc(NC(=NC2CCCCC2)c2cccc(C)c2)c1 [Compound 9] | band 3
COc1cccc(N=C(NC2CCCCC2)c2ccccc2)c1.Cl [Compound 6] | band 3
COc1ccccc1N=C(NC1CCCCC1)c1ccccc1.Cl [Compound 5] | band 1
c1ccc(C(=NC2CCCCC2)Nc2cccc3ccccc23)cc1 [Compound 7, hydrochloride] | band 2
Cc1cccc(C(=NC2CCCCC2)Nc2ccccc2)c1 [Compound 8] | band 3
Cc1cccc(NC(=NC2CCCCC2)c2ccccc2)c1C [Compound 4] | band 3
Cc1ccc(NC(=NC2CCCCC2)c2ccccc2)cc1 [Compound 2] | band 1
Cc1ccc(C(=NC2CCCCC2)Nc2ccccc2)cc1 [Compound 10] | band 2

**Q:** Field: class (Antitussive Ratio) — entry: Cl.Clc1ccc(C(OCCN2CCCCC2)c2ccccc2)cc1 (stereo not drawn) [Compound 13, Hustazol, reference compound]
**A:** band 1

**Q:** Record: CCc1ccc(N=C(NC2CCCCC2)c2ccccc2)cc1.Cl [Compound 3]
**A:** band 2

**Q:** Record: Cc1ccccc1NC(=NC1CCCCC1)c1ccccc1 [Compound 1]
**A:** band 3

**Q:** Record: COc1ccc2c(c1OC)C(=O)O[C@@H]2[C@H]1c2c(cc3c(c2OC)OCO3)CCN1C [Compound 16, noscapine hydrochloride, reference compound]
**A:** band 1

* * *

tested on: dogs; test: Antitussive activity (50%-antitussive effective dose AtD50; efficiency ratio relative to codeine phosphate); assay type: in vivo; conditions: Canis lupus familiaris; intravenous injection; Litchfield-Wilcoxon method; read-out: AtD50 (50%-antitussive effective dose)
Lab note - cut at 4 mg/kg for ED50: Met if strictly below, Not met if not.

**Q:** Hi there! Is ED50 for COc1ccccc1C(=Nc1ccccc1C)NC1CCCCC1.Cl below 4 mg/kg, do you know?
**A:** Not met

**Q:** Record: COc1ccccc1C(=Nc1cccc(C)c1)NC1CCCCC1.Cl
**A:** Not met

**Q:** Record: CCc1ccccc1N=C(NC1CCCCC1)c1cccc(C)c1.Cl
**A:** Not met

**Q:** Record: Cc1ccc(N=C(NC2CCCCC2)c2cccc(C)c2)cc1.Cl
**A:** Not met

**Q:** Record: COc1cccc(N=C(NC2CCCCC2)c2ccccc2C)c1.O=C(O)C(=O)O
**A:** Not met

**Q:** Record: CCc1cccc(N=C(NC2CCCCC2)c2ccccc2)c1.Cl
**A:** Not met

**Q:** Record: COc1ccc2c3c1O[C@H]1[C@@H](O)C=C[C@H]4[C@@H](C2)N(C)CC[C@@]341 [Compound 17, codeine phosphate, reference compound]
**A:** Met

**Q:** Record: Cc1ccc(C(=Nc2ccccc2C)NC2CCCCC2)cc1.Cl
**A:** Met

**Q:** Record: COc1ccc(C(=Nc2cccc(OC)c2)NC2CCCCC2)cc1.Cl
**A:** Met
